biological target: Fibroblast growth factor 10 (Homo sapiens) (UniProt O15520); assay: FGF10 binders on small-molecule microarrays, primary screen, biochemical, small-molecule microarray, 635 nm fluorescence (AID 1102); conditions: FGF10 binding, fluorescence 635 nm, higher = more signal
Sequence (O15520 whole entry, looked up): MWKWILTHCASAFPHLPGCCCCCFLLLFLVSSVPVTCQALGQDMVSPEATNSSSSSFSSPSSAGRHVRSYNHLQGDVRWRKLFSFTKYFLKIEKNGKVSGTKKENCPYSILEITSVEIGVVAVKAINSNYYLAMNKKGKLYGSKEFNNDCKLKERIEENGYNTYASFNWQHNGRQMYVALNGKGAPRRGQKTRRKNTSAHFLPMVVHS
# composite z-score per entry
Answer with a bare number; do not write a unit.

Data request, read-out composite z-score, for O=C1C[C@@](C(=O)NCC(F)(F)F)(c2ccc([N+](=O)[O-])cc2)[C@@H](c2ccc(CO)cc2)N1CC12CC3CC(CC(C3)C1)C2
1.44

Repeat with Cc1ccc(S[C@]2(C(=O)NC(C)C)CC(=O)N(Cc3ccccc3Cl)[C@@H]2c2ccc(CO)cc2)cc1
-0.465

Repeat with CC(C)[C@H]1NC(=O)[C@@]23C(=O)N[C@@H](Cc4ccccc4)C2[C@H](C)[C@@]2(C)O[C@H]2C3/C=C/CCC/C=C/CNC(=O)[C@H](Cc2ccccc2)NC1=O (some centres not stated)
0.106

Repeat with O=C1NC(=O)C2C1C=CC(C(O)c1ccccn1)N2Nc1ccc(Cl)cc1Cl (configuration not stated)
0.0551

Repeat with O=C(O)[C@H]1C[C@H]2C(=O)N[C@@H](Cc3ccccc3)C(=O)N2[C@H]1c1cccc(OCCO)c1
0.986

Repeat with CC(C)C(CO)N1C(=O)[C@@H]2[C@H]3C(=O)OCC=C[C@H]3OC23C=CCN(C(C)(C)C)C(=O)[C@@H]13 (some centres not stated)
-1.07

Repeat with CC(C)(C)OC(=O)CC[C@]1(C(=O)N2CCCCC2)COC(c2ccc(OCCCO)cc2)=N1
1.54

Repeat with C=CCNC(=O)[C@H]1[C@@H]2C(=O)O[C@@H](c3ccccc3)[C@@H](c3ccccc3)N2[C@@H](c2ccc(O)cc2)[C@]12C(=O)N(C(=O)OCCOC)c1ccc(C#CCC(C(=O)OC)C(=O)OC)cc12
1.1

Repeat with O=C(NCCN1CCOCC1)[C@@H]1c2ccccc2C(=O)N(Cc2ccccc2)[C@H]1c1ccc(CO)cc1
-0.765

Repeat with COc1cc(NN2C(C(O)C3CCCCC3)C=CC3C(=O)N(c4ccccc4)C(=O)C32)cc(OC)c1OC (configuration not stated)
0.448

Further cases:
Data request, read-out composite z-score, for COc1cc2c(cc1O)C(c1ccc(CN3CCCC3)cc1)N(C)CC2 (configuration not stated)
0.167

Repeat with CCCCC(=O)N(CCN1CCOCC1)[C@@H]1CC(C(=O)NCCO)=C[C@H](Oc2c(I)cc(CO)cc2OC)[C@H]1O
0.318

src = PubChem BioAssay
